FYI, the data here is from patent US20260167622A1.

TEST_TARGET: KRAS G12D protein in A427 cells (Homo sapiens, UniProt P01116, G12D)
Construct: endogenous in cells; host or cells: A427
Sequence (P01116 1-188 isoform P01116-2 G12D): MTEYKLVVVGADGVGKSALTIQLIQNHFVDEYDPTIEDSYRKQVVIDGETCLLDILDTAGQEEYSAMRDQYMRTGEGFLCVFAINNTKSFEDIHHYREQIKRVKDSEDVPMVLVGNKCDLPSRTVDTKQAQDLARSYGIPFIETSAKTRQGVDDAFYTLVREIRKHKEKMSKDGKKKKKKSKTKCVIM
TEST_PROTOCOL: KRAS degradation assay (Western Blot) in A427 cells
Format: cell-based
MEASUREMENT_CONDITIONS: A-427, 24 h
Please provide measured Dmax for the entries that follow.

The compound "CCc1cccc2cc(O)cc(-c3ncc4c(N5CCC[C@@](C)(O)C5)nc(OCC5(CN6CCN(CC7CCC8(CC7)CCN(C(=O)c7ccc(Cl)c(N9CCC(=O)NC9=O)c7)CC8)CC6)CC5)nc4c3F)c12" showed Dmax equal to 80 to 100%

The compound "C#Cc1c(F)ccc2cc(O)cc(-c3ncc4c(N5CCC[C@@](C)(O)C5)nc(OCC5(CN6CCN(CC7CCC8(CC7)CCN(C(=O)c7ccc(OC)c(N9CCC(=O)NC9=O)c7)CC8)CC6)CC5)nc4c3F)c12" showed Dmax equal to 80 to 100%

The compound "C#Cc1c(F)ccc2cc(O)cc(-c3ncc4c(N5CCC[C@@](C)(O)C5)nc(OCC5(CN6CCN(CC7CCC8(CC7)CCN(C(=O)c7ccc(C)c(N9CCC(=O)NC9=O)c7)CC8)CC6)CC5)nc4c3F)c12" showed Dmax equal to 80 to 100%

The compound "C#Cc1c(F)ccc2cc(O)cc(-c3ncc4c(N5CCC[C@@](C)(O)C5)nc(OCC5(CN6CCN(CC7CCC8(CC7)CCN(C(=O)c7ccc(Cl)c(N9CCC(=O)NC9=O)c7)CC8)CC6)CC5)nc4c3F)c12" showed Dmax equal to 80 to 100%

* * *

TEST_TARGET: KRAS G12C protein in NCI-H358 cells (Homo sapiens, UniProt P01116, G12C)
Construct: endogenous in cells; host or cells: NCI-H358
Sequence (P01116 1-188 isoform P01116-2 G12C): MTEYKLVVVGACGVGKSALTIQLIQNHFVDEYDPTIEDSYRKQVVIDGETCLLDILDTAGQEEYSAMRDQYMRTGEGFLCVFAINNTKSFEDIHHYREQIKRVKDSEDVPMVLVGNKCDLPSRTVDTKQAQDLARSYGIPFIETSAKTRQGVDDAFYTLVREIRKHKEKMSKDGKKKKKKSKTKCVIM
TEST_PROTOCOL: KRAS degradation assay (Western Blot) in NCI-H358 cells
Format: cell-based
MEASUREMENT_CONDITIONS: 24 h
PROPERTY: DC50 (nM)
Quick note: give the figure in nM, leave out the unit.

The molecule "C#Cc1c(F)ccc2cc(O)cc(-c3ncc4c(N(C)[C@H]5C[C@@H]5F)nc(OC[C@H](C)CN5CCN(CC6CCC7(CC6)CCN(C(=O)c6ccc(OC)c(N8CCC(=O)NC8=O)c6)CC7)CC5)nc4c3F)c12" showed DC50 equal to 21.6

The molecule "C#Cc1c(F)ccc2cc(O)cc(-c3ncc4c(N5CCC[C@@](C)(O)C5)nc(OC[C@H](C)CN5CCN(CC6CCC7(CC6)CCN(C(=O)c6ccc(OC)c(N8CCC(=O)NC8=O)c6)CC7)CC5)nc4c3F)c12" showed DC50 equal to 3.14

The molecule "[2H]C([2H])([2H])c1ccc(C(=O)N2CCC3(CCC(CN4CCN(C[C@@H](C)COc5nc(N6CCC[C@@](C)(O)C6)c6cnc(-c7cc(O)cc8ccc(F)c(C#C)c78)c(F)c6n5)CC4)CC3)CC2)cc1N1CCC(=O)NC1=O" showed DC50 equal to 1.37

* * *

TEST_TARGET: KRAS G12V protein in SW900 cells (Homo sapiens, UniProt P01116, G12V)
Construct: endogenous in cells; host or cells: SW900
Sequence (P01116 1-188 isoform P01116-2 G12V): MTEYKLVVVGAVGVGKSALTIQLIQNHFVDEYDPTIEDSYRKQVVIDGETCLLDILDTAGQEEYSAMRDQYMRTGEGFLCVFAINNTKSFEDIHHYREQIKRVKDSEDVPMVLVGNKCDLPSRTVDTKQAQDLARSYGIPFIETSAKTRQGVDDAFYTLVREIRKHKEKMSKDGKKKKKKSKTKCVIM
TEST_PROTOCOL: KRAS degradation assay (Western Blot) in SW900 cells
Format: cell-based
MEASUREMENT_CONDITIONS: 24 h
PROPERTY: Dmax

The compound C#Cc1c(F)ccc2cc(O)cc(-c3ncc4c(N5CCC[C@@](C)(O)C5)nc(OCC5(CN6CCN(CC7CCC8(CC7)CCN(C(=O)c7ccc(Cl)c(N9CCC(=O)NC9=O)c7)CC8)CC6)CC5)nc4c3F)c12 [Example 1] showed Dmax equal to 80 to 100%

The compound CCc1c(F)ccc2cc(O)cc(-c3ncc4c(N5CCC[C@@](C)(O)C5)nc(OCC5(CN6CCN(CC7CCC8(CC7)CCN(C(=O)c7ccc(Cl)c(N9CCC(=O)NC9=O)c7)CC8)CC6)CC5)nc4c3F)c12 [Example 2] showed Dmax equal to 80 to 100%

The compound C#Cc1c(F)ccc2cc(O)cc(-c3ncc4c(N5CCCC(C)(N)C5)nc(OCC5(CN6CCN(CC7CCC8(CC7)CCN(C(=O)c7ccc(OC)c(N9CCC(=O)NC9=O)c7)CC8)CC6)CC5)nc4c3F)c12 (stereo not drawn) [Example 163] showed Dmax equal to 71%

* * *

TEST_TARGET: KRAS G13D protein in DLD-1 cells (Homo sapiens, UniProt P01116, G13D)
Construct: endogenous in cells; host or cells: DLD-1
Sequence (P01116 1-188 isoform P01116-2 G13D): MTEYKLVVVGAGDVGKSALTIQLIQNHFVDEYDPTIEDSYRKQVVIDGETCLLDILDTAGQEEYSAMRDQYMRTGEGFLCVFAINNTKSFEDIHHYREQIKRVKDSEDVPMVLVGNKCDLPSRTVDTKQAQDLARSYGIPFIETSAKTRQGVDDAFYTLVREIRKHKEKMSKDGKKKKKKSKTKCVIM
TEST_PROTOCOL: KRAS degradation assay (Western Blot) in DLD-1 cells
Format: cell-based
MEASUREMENT_CONDITIONS: 24 h
Please provide measured DC50 for the entries that follow.
Quick note: give the figure in nM, leave out the unit.

The compound "C#Cc1c(F)ccc2cc(O)cc(-c3ncc4c(N5CCC[C@@](C)(O)C5)nc(OCC5(CN6CCN(CC7CCC8(CC7)CCN(C(=O)c7cc(N9CCC(=O)NC9=O)c(C)cc7F)CC8)CC6)CC5)nc4c3F)c12" showed DC50 equal to 8.8

The compound "C#Cc1c(F)ccc2cc(O)cc(-c3ncc4c(N5CCC[C@@](C)(O)C5)nc(OC[C@H](C)CN5CCN(CC6CCC7(CC6)CCN(C(=O)c6ccc(CC)c(N8CCC(=O)NC8=O)c6)CC7)CC5)nc4c3F)c12" showed DC50 equal to 7.28

* * *

Please provide measured Dmax for the entries that follow.
TEST_TARGET: KRAS G13D protein in DLD-1 cells (Homo sapiens, UniProt P01116, G13D)
Construct: endogenous in cells; host or cells: DLD-1
TEST_PROTOCOL: KRAS degradation assay (Western Blot) in DLD-1 cells
Format: cell-based
MEASUREMENT_CONDITIONS: 24 h
Quick note: give the figure in %, leave out the unit.

The compound "[2H]C([2H])([2H])c1ccc(C(=O)N2CCC3(CCC(CN4CCN(CC5(COc6nc(N7CCC[C@@](C)(O)C7)c7cnc(-c8cc(O)cc9ccc(F)c(C#C)c89)c(F)c7n6)CC5)CC4)CC3)CC2)cc1N1CCC(=O)NC1=O" showed Dmax equal to 99.3

The compound "C#Cc1c(F)ccc2cc(O)cc(-c3ncc4c(N5CCC[C@@](C)(O)C5)nc(OC[C@H](C)CN5CCN(CC6CCC7(CC6)CCN(C(=O)c6ccc(CC)c(N8CCC(=O)NC8=O)c6)CC7)CC5)nc4c3F)c12" showed Dmax equal to 100

The compound "C#Cc1c(F)ccc2cc(O)cc(-c3ncc4c(N5CCC[C@@](C)(O)C5)nc(OC[C@H](C)CN5CCN(CC6CCC7(CC6)CCN(C(=O)c6ccc(OC)c(N8CCC(=O)NC8=O)c6)CC7)CC5)nc4c3F)c12" showed Dmax equal to 100

The compound "[2H]C([2H])([2H])c1ccc(C(=O)N2CCC3(CCC(CN4CCN(C[C@@H](C)COc5nc(N6CCC[C@@](C)(O)C6)c6cnc(-c7cc(O)cc8ccc(F)c(C#C)c78)c(F)c6n5)CC4)CC3)CC2)cc1N1CCC(=O)NC1=O" showed Dmax equal to 100

The compound "C#Cc1c(F)ccc2cc(O)cc(-c3ncc4c(N5CCC[C@@](C)(O)C5)nc(OC[C@H](C)CN5CCN(CC6CCC7(CC6)CCN(C(=O)c6ccc(C)c(N8CCC(=O)NC8=O)c6)CC7)CC5)nc4c3F)c12" showed Dmax equal to 100

The compound "C#Cc1c(F)ccc2cc(O)cc(-c3ncc4c(N5CCC[C@@](C)(O)C5)nc(OC[C@H](C)CN5CCN(CC6CCC7(CC6)CCN(C(=O)c6ccc(Cl)c(N8CCC(=O)NC8=O)c6)CC7)CC5)nc4c3F)c12" showed Dmax equal to 100

The compound "[2H]C([2H])([2H])Oc1ccc(C(=O)N2CCC3(CCC(CN4CCN(CC5(COc6nc(N7CCC[C@@](C)(O)C7)c7cnc(-c8cc(O)cc9ccc(F)c(C#C)c89)c(F)c7n6)CC5)CC4)CC3)CC2)cc1N1CCC(=O)NC1=O" showed Dmax equal to 99.9

The compound "C#Cc1c(F)ccc2cc(O)cc(-c3ncc4c(N(C)[C@H]5C[C@@H]5F)nc(OC[C@H](C)CN5CCN(CC6CCC7(CC6)CCN(C(=O)c6ccc(OC)c(N8CCC(=O)NC8=O)c6)CC7)CC5)nc4c3F)c12" showed Dmax equal to 98

The compound "C#Cc1c(F)ccc2cc(O)cc(-c3ncc4c(N5CCC[C@@](C)(O)C5)nc(OCC5(CN6CCN(CC7CCC8(CC7)CCN(C(=O)c7cc(N9CCC(=O)NC9=O)c(C)cc7F)CC8)CC6)CC5)nc4c3F)c12" showed Dmax equal to 100

The compound "[2H]C([2H])([2H])Oc1ccc(C(=O)N2CCC3(CCC(CN4CCN(C[C@@H](C)COc5nc(N6CCC[C@@](C)(O)C6)c6cnc(-c7cc(O)cc8ccc(F)c(C#C)c78)c(F)c6n5)CC4)CC3)CC2)cc1N1CCC(=O)NC1=O" showed Dmax equal to 100
